molecular target: Hck (UniProt P08631); test: phosphorylation enrichment, bacterial display (enrichment ratio); higher = better substrate or ligand; peptides without Tyr show the background;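 also: 11-residue human phosphosite peptides and single-mutation variants displayed on the E. coli surface, counted by deep sequencing, each peptide's frequency after selection divided by its frequency in the unselected input library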;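 also: frequency after pTyr selection over input frequency; kinase dosed for 20-30% of maximal phosphorylation in three min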
Sequence (P08631 whole entry, looked up): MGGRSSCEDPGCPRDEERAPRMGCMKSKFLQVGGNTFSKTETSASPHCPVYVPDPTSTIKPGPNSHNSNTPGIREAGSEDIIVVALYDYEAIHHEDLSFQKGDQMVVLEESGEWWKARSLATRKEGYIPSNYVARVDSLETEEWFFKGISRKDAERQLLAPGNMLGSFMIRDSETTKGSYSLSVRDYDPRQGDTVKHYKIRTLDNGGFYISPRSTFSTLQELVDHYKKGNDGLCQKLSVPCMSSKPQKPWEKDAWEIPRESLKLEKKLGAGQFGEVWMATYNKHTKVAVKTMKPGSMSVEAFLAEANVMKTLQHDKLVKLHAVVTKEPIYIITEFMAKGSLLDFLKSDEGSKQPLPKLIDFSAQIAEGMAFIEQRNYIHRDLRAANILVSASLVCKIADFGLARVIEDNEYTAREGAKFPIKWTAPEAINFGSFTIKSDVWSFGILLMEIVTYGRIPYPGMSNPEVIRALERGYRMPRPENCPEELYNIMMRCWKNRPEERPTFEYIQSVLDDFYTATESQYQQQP
OUTCOME MEASURE: phosphorylation enrichment
Please respond with just the number, no unit label.

> print(dat)
                 polymer.sequence             outcome.measure  readout.number
1    YIATQYSLCPR [LBR_Y166_R169C]  phosphorylation enrichment           0.719
2    QEMMEYRRQIQ [DES_Y324_H326R]  phosphorylation enrichment           0.355
3  KHGGNYVPAPE [OSCP1_Y237_K242E]  phosphorylation enrichment           0.325

sequence VATRWYRSLEL [CDKL5_Y177_P180L] , phosphorylation enrichment observed: 0.432

###

target: Fes (UniProt P07332); assay: phosphorylation enrichment, bacterial display (enrichment ratio); higher = better substrate or ligand; peptides without Tyr show the background
Sequence (P07332 whole entry, looked up): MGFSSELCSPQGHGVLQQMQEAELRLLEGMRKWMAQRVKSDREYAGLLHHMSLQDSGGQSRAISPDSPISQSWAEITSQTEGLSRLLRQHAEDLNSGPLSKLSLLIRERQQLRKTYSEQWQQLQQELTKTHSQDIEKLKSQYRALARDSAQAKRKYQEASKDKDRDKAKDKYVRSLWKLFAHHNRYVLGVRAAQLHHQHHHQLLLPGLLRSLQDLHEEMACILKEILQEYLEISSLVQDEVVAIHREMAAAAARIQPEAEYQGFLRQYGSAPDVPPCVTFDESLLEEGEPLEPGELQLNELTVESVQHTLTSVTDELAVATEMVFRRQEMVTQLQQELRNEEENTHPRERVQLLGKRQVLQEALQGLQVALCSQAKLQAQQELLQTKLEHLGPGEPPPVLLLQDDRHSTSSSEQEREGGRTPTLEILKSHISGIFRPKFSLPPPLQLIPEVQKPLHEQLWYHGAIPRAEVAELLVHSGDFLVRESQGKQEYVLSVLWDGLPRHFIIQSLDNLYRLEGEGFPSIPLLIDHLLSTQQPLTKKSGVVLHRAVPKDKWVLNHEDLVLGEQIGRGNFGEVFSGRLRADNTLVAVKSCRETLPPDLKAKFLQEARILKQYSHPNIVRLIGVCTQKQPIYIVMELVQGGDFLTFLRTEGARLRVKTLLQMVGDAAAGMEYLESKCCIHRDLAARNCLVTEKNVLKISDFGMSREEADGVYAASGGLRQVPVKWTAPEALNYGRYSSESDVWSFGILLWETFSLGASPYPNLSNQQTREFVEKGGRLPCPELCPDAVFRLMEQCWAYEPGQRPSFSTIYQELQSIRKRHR
OUTCOME MEASURE: phosphorylation enrichment

Below, 3 sequences whose answers are already recorded.
> print(dat)
                  polymer.sequence    measurement.target  result
1         QQTFTYDSGIH [JUP_Y22_YF]  Fes (UniProt P07332)    1.78
2  GFGGGYGGVLT [KRT19_Y65_A60G_YF]  Fes (UniProt P07332)   0.696
3   LPPGTYPSDFT [UNC5B_Y511_A516T]  Fes (UniProt P07332)    1.25

Alright, here's another sequence for you.
sequence DVMDFYKTLRG [NR3C1_Y30] , phosphorylation enrichment observed: 0.728

###

Recorded measurements of phosphorylation enrichment, one per entry
system: c-Src; test: phosphorylation enrichment, bacterial display (enrichment ratio); higher = better substrate or ligand; peptides without Tyr show the background

> print(dat)
                 polymer.sequence  result
1        GGYTCYCDGKK [PROS1_Y266]   0.499
2  ERNAHYRTPKI [PTK2B_Y699_R698H]   0.387
3     ANFTEYVATRW [CDKL5_Y171_YF]   0.466
4  ALEKTYNTFRS [B4GALNT2_Y538_YF]    1.78

sequence SVESPYGSVTF [NDRG2_Y47_T45S] , phosphorylation enrichment observed: 5.95

sequence LSRDVYEEDSF [RET_Y900_YF] , phosphorylation enrichment observed: 0.828

###

biological target: Fes (UniProt P07332); test: phosphorylation enrichment, bacterial display (enrichment ratio); higher = better substrate or ligand; peptides without Tyr show the background
OUTCOME MEASURE: phosphorylation enrichment
Please respond with just the number, no unit label.

> print(dat)
            polymer.sequence  readout.number
1   ELTSVYDSRAR [SENP1_Y349]           0.624
2  DSASAYADEVK [ETNPPL_Y189]            1.04
3      ALVLQYLRVPL [F9_Y371]            1.02

sequence HSGIYYKPESL [L2HGDH_Y103] , phosphorylation enrichment observed: 0.984

###

molecular target: FGFR1 (UniProt P11362); experiment: phosphorylation enrichment, bacterial display (enrichment ratio); higher = better substrate or ligand; peptides without Tyr show the background
Sequence (P11362 whole entry, looked up): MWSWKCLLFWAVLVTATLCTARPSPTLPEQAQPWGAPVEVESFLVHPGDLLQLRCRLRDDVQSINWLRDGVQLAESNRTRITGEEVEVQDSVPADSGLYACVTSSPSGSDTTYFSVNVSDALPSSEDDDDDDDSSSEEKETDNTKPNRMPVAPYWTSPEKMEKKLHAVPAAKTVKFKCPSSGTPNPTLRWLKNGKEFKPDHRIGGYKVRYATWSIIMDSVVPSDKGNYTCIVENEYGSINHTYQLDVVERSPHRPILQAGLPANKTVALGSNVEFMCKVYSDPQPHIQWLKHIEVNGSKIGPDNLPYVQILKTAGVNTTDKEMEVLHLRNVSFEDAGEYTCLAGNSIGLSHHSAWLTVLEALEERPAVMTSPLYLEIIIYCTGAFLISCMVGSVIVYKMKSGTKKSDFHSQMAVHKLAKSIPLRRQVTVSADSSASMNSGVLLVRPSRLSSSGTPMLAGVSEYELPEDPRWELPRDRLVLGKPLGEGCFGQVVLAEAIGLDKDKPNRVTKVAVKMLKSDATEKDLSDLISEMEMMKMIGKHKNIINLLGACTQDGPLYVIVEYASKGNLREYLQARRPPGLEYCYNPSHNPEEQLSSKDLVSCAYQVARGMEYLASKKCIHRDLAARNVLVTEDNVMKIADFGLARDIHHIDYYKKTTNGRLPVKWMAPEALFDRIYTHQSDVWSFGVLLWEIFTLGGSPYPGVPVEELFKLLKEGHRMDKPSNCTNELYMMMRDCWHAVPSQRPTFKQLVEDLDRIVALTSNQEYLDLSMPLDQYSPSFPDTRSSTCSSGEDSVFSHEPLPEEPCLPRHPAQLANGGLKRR
Class key for phosphorylation enrichment values: class 1: < 0.5; class 2: ≥ 0.5 and < 0.6; class 3: ≥ 0.6

Previously resolved entries follow.
> print(dat)
                  polymer.sequence      measurement.target  answer.label
1   SCRENYSYSEE [LEMD3_Y258_D260Y]  FGFR1 (UniProt P11362)       class 2
2  RRIHSYRGFLW [VHL_Y112_H115Y_YF]  FGFR1 (UniProt P11362)       class 1
3         LPKVSYVKAID [GLRA1_Y307]  FGFR1 (UniProt P11362)       class 1
4     NPEACYQRLKK [TK2_Y190_T188A]  FGFR1 (UniProt P11362)       class 1
5     YQGGTYSKACT [FGG_Y380_S384C]  FGFR1 (UniProt P11362)       class 1
6       SPYAVYRFFTF [RPGRIP1_Y826]  FGFR1 (UniProt P11362)       class 3

Field: class (phosphorylation enrichment) — entry: LGSVVYAQSKE [KCNQ2_Y226_H228Q]
class 3

Field: class (phosphorylation enrichment) — entry: ETPSEYLEIVR [TMEM130_Y412]
class 3

Field: class (phosphorylation enrichment) — entry: VGNAAYQAGSL [STK36_Y1181_P1185S]
class 2

Field: class (phosphorylation enrichment) — entry: GPKSTYISSAA [GOLGA5_Y62]
class 1

Field: class (phosphorylation enrichment) — entry: KKYPDYIQIAR [SGMS2_Y59_M64R]
class 3

Field: class (phosphorylation enrichment) — entry: LTRDIYKNDYY [ROS1_Y2110_A2106T]
class 3

Field: class (phosphorylation enrichment) — entry: SARSAYQEAID [SFN_Y151_M155I]
class 2

Field: class (phosphorylation enrichment) — entry: TYQYKYPEGSS [TGM4_Y440_E437Q]
class 1

Field: class (phosphorylation enrichment) — entry: FGSSSSGGAGG [RPA2_Y14_Y14S_YF]
class 1

Field: class (phosphorylation enrichment) — entry: VRHRRYKHTHE [CTCF_Y343]
class 3

Field: class (phosphorylation enrichment) — entry: LWQTIYNLEAE [TNNT2_Y251_S249T]
class 3

Field: class (phosphorylation enrichment) — entry: QPGTDYKIYLY [FN1_Y1970]
class 3

Field: class (phosphorylation enrichment) — entry: LAVPLYKNGVK [CPS1_Y1069]
class 3

Field: class (phosphorylation enrichment) — entry: MPLTEYLKQIK [CNGB3_Y200_R203Q]
class 2
